Data credit: the supplement of paper PMC8728848

# target-or-system: Fuc(a1-2)Gal(b1-4)GlcNAc(b1-3)GalNAc
# method-notes: glycan array binding signal (z-score within array); higher = stronger binding
# measurement-conditions: glycan notation: IUPAC condensed, linker removed
This is one part of a sample in which the strongest signals are shown more often than they occur.
attribute-measured: glycan array binding signal (z-score)

Entry TAL6-4LysM (Trichoderma atroviride) (protein) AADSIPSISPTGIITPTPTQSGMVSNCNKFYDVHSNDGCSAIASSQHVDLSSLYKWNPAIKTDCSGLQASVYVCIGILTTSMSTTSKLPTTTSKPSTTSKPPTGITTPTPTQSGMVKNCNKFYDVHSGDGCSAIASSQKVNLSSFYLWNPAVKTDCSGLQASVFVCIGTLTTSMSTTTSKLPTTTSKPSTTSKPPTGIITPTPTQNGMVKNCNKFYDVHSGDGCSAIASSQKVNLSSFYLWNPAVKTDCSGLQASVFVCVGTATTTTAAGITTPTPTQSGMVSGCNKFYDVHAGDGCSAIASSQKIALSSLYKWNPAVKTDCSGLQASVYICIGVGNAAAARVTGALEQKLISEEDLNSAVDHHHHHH has what glycan array binding signal (z-score)? -0.49
